# protocolText: Acute toxicity
# measurementParameters: mouse, in vivo, ip; ddy mice, single abdominal administration, 14 days observation, Behrens-Korber's method

molecule | readoutQualifier | LD50 at 336 h (mg/kg)
C=C1C2=C(C(=O)C(C)=C(N=S(c3ccccc3)c3ccccc3)C2=O)N2C[C@H]3[C@H](N3C)[C@]12O (some centres unmarked) [Compound 3] | > | 200
CO[C@@]12[C@H](COC(N)=O)C3=C(C(=O)C(C)=C(N=S(C)c4ccccc4)C3=O)N1C[C@@H]1N[C@@H]12 (some centres unmarked) [Compound 5] | = | 15
CC1=C(N=S(c2ccccc2)c2ccccc2)C(=O)C2=C(C1=O)N1C[C@H]3[C@H](N3C)[C@]1(O)[C@H]2COC(N)=O (some centres unmarked) [Compound 2] | > | 200
CCS(CC)=NC1=C(C)C(=O)C2=C(C1=O)[C@@H](COC(N)=O)[C@@]1(OC)[C@H]3N[C@H]3CN21 [Compound 6] | = | 9.4
CO[C@@]12[C@H](COC(N)=O)C3=C(C(=O)C(C)=C(N=P(c4ccccc4)(c4ccccc4)c4ccccc4)C3=O)N1C[C@@H]1N[C@@H]12 [Compound 9] | > | 100

----------
# System: Sarcoma 180 solid tumour
# protocolText: Antitumour activity against Sarcoma 180 solid tumour
# Format: in vivo, ddy male mouse
# measurementParameters: chemotherapeutic index LD50/ED50; Sarcoma 180, ddy mice
// reported C.I. (LD50/ED50) for each item listed
propertyMeasured: C.I. (LD50/ED50)

compound | readoutQualifier | readoutNumber
CCS(CC)=NC1=C(C)C(=O)C2=C(C1=O)[C@@H](COC(N)=O)[C@@]1(OC)[C@H]3N[C@H]3CN21 | = | 3.8
C=C1C2=C(C(=O)C(C)=C(N=S(c3ccccc3)c3ccccc3)C2=O)N2C[C@H]3[C@H](N3C)[C@]12O (some centres unmarked) | > | 1.5
CC1=C(N=S(c2ccccc2)c2ccccc2)C(=O)C2=C(C1=O)N1C[C@H]3[C@H](N3C)[C@]1(O)[C@H]2COC(N)=O (some centres unmarked) | > | 2.2
CO[C@@]12[C@H](COC(N)=O)C3=C(C(=O)C(C)=C(N=P(c4ccccc4)(c4ccccc4)c4ccccc4)C3=O)N1C[C@@H]1N[C@@H]12 | ≥ | 1.0
CO[C@@]12[C@H](COC(N)=O)C3=C(C(=O)C(C)=C(N=S(C)c4ccccc4)C3=O)N1C[C@@H]1N[C@@H]12 (some centres unmarked) | = | 5.6

----------
# Tested on: Streptococcus faecalis ATCC 10541
Rule: MIC below 0.08 µg/mL gives 1, anything at or above gives -1.

compound | class
CO[C@@]12[C@H](COC(N)=O)C3=C(C(=O)C(C)=C(N=P(c4ccccc4)(c4ccccc4)c4ccccc4)C3=O)N1C[C@@H]1N[C@@H]12 [Compound 9] | -1
CO[C@@]12[C@H](COC(N)=O)C3=C(C(=O)C(C)=C(N=S(c4ccccc4)c4ccccc4)C3=O)N1C[C@@H]1N[C@@H]12 [Compound 1] | 1
CC1=C(N=S(c2ccccc2)c2ccccc2)C(=O)C2=C(C1=O)N1C[C@H]3[C@H](N3C)[C@]1(O)[C@H]2COC(N)=O (some centres unmarked) [Compound 2] | -1
CCS(CC)=NC1=C(C)C(=O)C2=C(C1=O)[C@H](COC(N)=O)[C@@]1(O)[C@@H]3[C@H](CN21)N3C (some centres unmarked) [Compound 7] | -1
